target: FAAH (Homo sapiens (Human), UniProt O00519); assay: Assay Method 1: FAAH assay, T84 cell homogenate, 3H-anandamide hydrolysis; format: biochemical; details: 3H-AEA tracer 200 nM, 1 h at rt
Sequence (O00519 whole entry): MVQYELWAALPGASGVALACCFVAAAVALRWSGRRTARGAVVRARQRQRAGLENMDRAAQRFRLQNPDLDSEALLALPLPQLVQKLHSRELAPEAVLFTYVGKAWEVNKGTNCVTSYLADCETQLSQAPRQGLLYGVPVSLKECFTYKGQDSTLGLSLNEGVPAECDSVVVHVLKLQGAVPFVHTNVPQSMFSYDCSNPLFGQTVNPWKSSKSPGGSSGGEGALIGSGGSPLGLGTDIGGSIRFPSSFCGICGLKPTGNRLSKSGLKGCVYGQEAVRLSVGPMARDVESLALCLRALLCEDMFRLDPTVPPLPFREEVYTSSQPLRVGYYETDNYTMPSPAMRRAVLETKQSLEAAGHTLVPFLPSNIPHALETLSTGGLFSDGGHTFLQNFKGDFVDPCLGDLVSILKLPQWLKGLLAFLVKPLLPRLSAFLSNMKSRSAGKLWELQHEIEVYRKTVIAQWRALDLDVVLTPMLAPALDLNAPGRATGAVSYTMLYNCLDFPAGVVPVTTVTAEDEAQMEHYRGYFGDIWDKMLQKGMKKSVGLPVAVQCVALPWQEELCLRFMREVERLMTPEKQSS
pIC50: −log10 of the molar value.
attribute_measured: pIC50

- O=C(Nc1ccccc1)N1CCN(Cc2cccc(OS(=O)(=O)c3ccccc3)c2)CC1: 7.23
- CC(C)(C)c1ccc(Oc2cccc(CN3CCN(C(=O)Nc4ccccc4)CC3)c2)cc1: 7.16
- O=C(Nc1ccccc1)N1CCN(Cc2ccc(I)cc2)CC1: 7.28
- CCn1c2ccccc2c2cc(CN3CCN(C(=O)Nc4ccccc4)CC3)ccc21: 6.48

(P) O=C(Nc1ccccc1)N1CCN(Cc2cccc3c2OCO3)CC1
(Q) O=C(Nc1ccccc1)N1CCN(Cc2cccc3ccccc23)CC1
Of P and Q , which shows the smaller pIC50 value? Give the chosen item's label as your response.
P
(P: 5.22, Q: 5.96)

(1) O=C(Nc1ccccc1)N1CCN(Cc2ccnc3ccccc23)CC1
(2) COc1ccc(Oc2cccc(CN3CCN(C(=O)Nc4ccccc4)CC3)c2)cc1
Lab note: record which item had the higher pIC50, 1 or 2 . Select an item and report its label.
2
